Data origin, for the record: the NIST ThermoML archive (doi:10.1016/j.jct.2016.07.032)

# Protocol Details: refractive index (Na D-line) (dimensionless)
# Experimental Parameters: 303 K; 101.3 kPa; Liquid; Standard Abbe refractometry
Measured refractive index of individual entries
Give only the figure.

Lab note: measured refractive index of CN1CCCC1=O was 1.466

The compound listed as CCOc1ccccc1 shows refractive index equal to 1.503

For C1CCOC1 [tetrahydrofuran] the compound record lists refractive index as 1.403

For this compound ( CN(C)C=O [dimethylformamide] ), measured refractive index is 1.427

----------
# Experimental Parameters: 303 K; 101.3 kPa; Liquid; Vibrating tube method
Entries and their measured mass density follow.
Write it as a number; the unit kg/m3 goes unstated.

* CCOc1ccccc1 [ethoxybenzene] | 955

C1CCOC1 [tetrahydrofuran] yielded mass density of 878

# mass density of CN(C)C=O [dimethylformamide] = 939

Reported mass density ( CN1CCCC1=O [N-methylpyrrolidone] ) = 1022

----------
Reported speed of sound values follow for various compounds
# Experimental Parameters: 308 K; 101.3 kPa; Liquid; Frequency=3 MHz; Sing-around technique in a fixed-path interferometer
Expressed in m/s, but write only the number.

* CCOc1ccccc1 | 1329
* C1CCOC1 [tetrahydrofuran] | 1230

Quick note, speed of sound for CN(C)C=O [dimethylformamide] landed at 1420

Quick note, speed of sound for CN1CCCC1=O landed at 1507

----------
A collection of compounds and their measured refractive index
# Protocol Details: refractive index (Na D-line) (dimensionless)
# Experimental Parameters: 298 K; 101.3 kPa; Liquid; Standard Abbe refractometry
Format: numeric value only, no unit, no commentary.

# annotated cases, reported refractive index shown
- C1CCOC1 [tetrahydrofuran]: 1.405
- CCOc1ccccc1: 1.505
- CN(C)C=O [dimethylformamide]: 1.429

Please find the next compound below.
// refractive index value for CN1CCCC1=O : 1.467

----------
The entries below are paired with their reported mass density.
# Experimental Parameters: 298 K; 101.3 kPa; Liquid; Vibrating tube method
Supply the numeric figure in kg/m3, leaving out any unit text.

- CN(C)C=O [dimethylformamide]: 944
- C1CCOC1 [tetrahydrofuran]: 882
- CN1CCCC1=O: 1026

As a next step, examine the compound that follows.
Lab note: CCOc1ccccc1 gave mass density of 960

----------
# Experimental Parameters: 298 K; 101.3 kPa; Liquid; Frequency=3 MHz; Sing-around technique in a fixed-path interferometer
Measured Attribute: speed of sound (m/s)
State the answer as a number, implicitly in m/s.

Lab book: speed of sound of C1CCOC1 [tetrahydrofuran] noted as 1278

----------
Entries and their refractive index
# Protocol Details: refractive index (Na D-line) (dimensionless)
# Experimental Parameters: 308 K; 101.3 kPa; Liquid; Standard Abbe refractometry
# answer = number (no unit)

A selection of reference data follows.
• CCOc1ccccc1 [ethoxybenzene] = 1.499
• CN(C)C=O [dimethylformamide] = 1.425
• C1CCOC1 [tetrahydrofuran] = 1.4

For record CN1CCCC1=O [N-methylpyrrolidone] the listed refractive index is 1.464

----------
# Experimental Parameters: 308 K; 101.3 kPa; Liquid; Vibrating tube method
± gives the expanded uncertainty stated by the source.
Measured Attribute: mass density
Quick note: unit goes after the number.

Reference set, count: 3
* CN(C)C=O [dimethylformamide] | 935 ± 2 kg/m3
* C1CCOC1 [tetrahydrofuran] | 874 ± 2 kg/m3
* CN1CCCC1=O [N-methylpyrrolidone] | 1018 ± 2 kg/m3

As a next step, examine the molecule that follows.
In plain terms, CCOc1ccccc1 [ethoxybenzene] has a documented mass density of 951 ± 2 kg/m3
